Overview of recorded fold change (FC) for various compounds
# Test system: Pseudomonas aeruginosa
# method summary: Potentiation of piperacillin-induced antibacterial activity against wild type Pseudomonas aeruginosa PAO1 assessed as fold reduction in piperacillin MIC at 8 uM
# Assay type: functional
measurement kind: fold change (FC)

[[record]]
smiles_string = "Cl.Cl.Cl.Cl.Cl.NC[C@H]1O[C@H](O[C@H]2[C@H](OCCCCCCCCCCCCN3CCN(c4cc5c(cc4F)c(=O)c(C(=O)O)cn5C4CC4)CC3)[C@@H](O)[C@H](N)C[C@@H]2N)[C@H](N)C[C@@H]1O"
result_value = 2

[[record]]
smiles_string = "N=C(N)NC[C@H]1O[C@H](O[C@H]2[C@H](OCCCCCCCCCCCCN3CCN(c4cc5c(cc4F)c(=O)c(C(=O)O)cn5C4CC4)CC3)[C@@H](O[C@H]3O[C@H](CO)[C@@H](O)[C@H](NC(=N)N)[C@H]3O)[C@H](NC(=N)N)C[C@@H]2NC(=N)N)[C@H](NC(=N)N)C[C@@H]1O.O=C(O)C(F)(F)F.O=C(O)C(F)(F)F.O=C(O)C(F)(F)F.O=C(O)C(F)(F)F.O=C(O)C(F)(F)F.O=C(O)C(F)(F)F"
result_value = 2

[[record]]
smiles_string = "NC[C@H]1O[C@H](O[C@H]2[C@H](OCCCCc3cn(CCCCO[C@@H]4[C@@H](O)[C@H](N)C[C@H](N)[C@H]4O[C@H]4O[C@H](CN)[C@@H](O)C[C@H]4N)nn3)[C@@H](O)[C@H](N)C[C@@H]2N)[C@H](N)C[C@@H]1O.O=C(O)C(F)(F)F.O=C(O)C(F)(F)F.O=C(O)C(F)(F)F.O=C(O)C(F)(F)F.O=C(O)C(F)(F)F.O=C(O)C(F)(F)F.O=C(O)C(F)(F)F.O=C(O)C(F)(F)F"
result_value = 2


###

# System: Pseudomonas aeruginosa
# method summary: Potentiation of ceftazidime-induced antibacterial activity against carbapenem-resistant Pseudomonas aeruginosa 108590 clinical isolate assessed as fold reduction in ceftazidime MIC at 8 uM in presence of beta-lactamase inhibitor, avi-bactam
# Assay type: functional
measurement kind: fold change (FC)

[[record]]
smiles_string = "Cl.Cl.Cl.Cl.Cl.Cl.NC[C@H]1O[C@H](O[C@H]2[C@H](OCCCCCCCCCCCCN3CCN(c4cc5c(cc4F)c(=O)c(C(=O)O)cn5C4CC4)CC3)[C@@H](O[C@H]3O[C@H](CO)[C@@H](O)[C@H](N)[C@H]3O)[C@H](N)C[C@@H]2N)[C@H](N)C[C@@H]1O"
result_value = 16

[[record]]
smiles_string = "N=C(N)NC[C@H]1O[C@H](O[C@H]2[C@H](OCCCCCCCCCCCCN3CCN(c4cc5c(cc4F)c(=O)c(C(=O)O)cn5C4CC4)CC3)[C@@H](O[C@H]3O[C@H](CO)[C@@H](O)[C@H](NC(=N)N)[C@H]3O)[C@H](NC(=N)N)C[C@@H]2NC(=N)N)[C@H](NC(=N)N)C[C@@H]1O.O=C(O)C(F)(F)F.O=C(O)C(F)(F)F.O=C(O)C(F)(F)F.O=C(O)C(F)(F)F.O=C(O)C(F)(F)F.O=C(O)C(F)(F)F"
result_value = 16

[[record]]
smiles_string = "Cl.Cl.Cl.Cl.Cl.NC[C@H]1O[C@H](O[C@H]2[C@H](OCCCCCCCCCCCCN3CCN(c4cc5c(cc4F)c(=O)c(C(=O)O)cn5C4CC4)CC3)[C@@H](O)[C@H](N)C[C@@H]2N)[C@H](N)C[C@@H]1O"
result_value = 16


Values compiled from ChEMBL document CHEMBL4665836.
